test: Cellular Toxicity (caspase-3) Hek293 (AID 664); settings: HEK293 caspase-3 activation, DMSO = 0%, 100 µM tamoxifen = 100%; at 92.2 µM (top of the series);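 also: cells exposed to compound for 16 h at 37 °C before readout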
Inconclusive results are not listed.
Property: caspase-3 activation (%)
Reply numerically in %, unit not repeated.

As a guide, the following entries are already answered.
Compound: C=CC(=O)OCC(C)C
caspase-3 activation / %: -0.317
--
Compound: Nc1ccc2ccccc2c1
caspase-3 activation / %: 2.15
--
Compound: Nc1ccc(Oc2ccc(N)cc2)cc1
caspase-3 activation / %: -2.14

Consider ClCc1ccccc1 . Its measured caspase-3 activation is 1.06

Consider C/C=C/C=O . Its measured caspase-3 activation is -1.23

Consider C=CCBr . Its measured caspase-3 activation is 1.99

Consider O=C(O)CBr . Its measured caspase-3 activation is 2.72

Consider C/C=C/CC#N . Its measured caspase-3 activation is 1.26

Consider O=C(O)c1cc(Cl)ccc1Cl . Its measured caspase-3 activation is -1.49

Consider Nc1ccc(-c2ccc(N)cc2)cc1 . Its measured caspase-3 activation is 0.43

Consider Cc1ccc(N)cc1C . Its measured caspase-3 activation is 0.308

Consider BrCC(Br)C1CCC(Br)C(Br)C1 (stereo not drawn) . Its measured caspase-3 activation is 6.64

Consider O=[N+]([O-])c1ccc(Cl)c(Cl)c1Cl . Its measured caspase-3 activation is -0.669

Consider O=[N+]([O-])c1c(Cl)c(Cl)c(Cl)c(Cl)c1Cl . Its measured caspase-3 activation is 2.86

Consider CCCCNC(=O)n1c(NC(=O)OC)nc2ccccc21 . Its measured caspase-3 activation is -2.55

Consider COC(=O)Nc1cccc(OC(=O)Nc2cccc(C)c2)c1 . Its measured caspase-3 activation is 0.0585

Consider ClCC(Br)CBr (stereo not drawn) . Its measured caspase-3 activation is 0.439

Consider Cc1ccc(N)cc1N . Its measured caspase-3 activation is 0.128

Consider BrCC(Br)(Br)Br . Its measured caspase-3 activation is 7.98

Where these numbers come from: PubChem BioAssay (NCATS)
